# key: entry, value: melting point

Example compounds with recorded melting point:
>  <compound>
CC(=S)NC[C@H]1CN(c2ccc(N3CCOCC3)c(F)c2)C(=O)O1

>  <recorded_metric>
melting point

>  <result>
158 °C

$$$$
>  <compound>
O=C(O)CCc1cn(Cc2ccc(OCc3ccoc3)cc2)cc1-c1ccccc1

>  <recorded_metric>
melting point

>  <result>
110 to 111 °C

$$$$
>  <compound>
COC(=O)C(=O)c1cn2c3c(cccc13)C(Br)CC2 (stereo not given)

>  <recorded_metric>
melting point

>  <result>
120 to 122 °C

$$$$
>  <compound>
COCc1cnc2c(NC(=O)c3ccccc3[N+](=O)[O-])cccc2c1N1CCN(C)C1=O

>  <recorded_metric>
melting point

>  <result>
156 to 159 °C

$$$$

# ---- query compound ----
Summary for this compound, O=C1NCc2cc(-c3cnc4[nH]c(=O)n(CC5CCCCC5)c4n3)ccc21 : melting point is 337 to 339 °C

Origin of the recorded values: a melting point compilation (Tetko et al.; mined from patent text by program, amines drawn as free bases though some values may be those of a salt)
